# credit: ChEMBL document CHEMBL4321827

# experiment: Inhibition of inositol monophosphatase (unknown origin)
# Parameters: species or system Homo sapiens
reportedEndpoint: IC50 (µM)
Give just the numeric value; µM need not be written.

[in] Supply recorded IC50 for O=c1c2ccccc2[se]n1-c1ccccc1 here.
[out] 1.5

====

# assayTarget: Histone deacetylase 9 (Homo sapiens)
# Sequence (Q9UKV0 whole entry): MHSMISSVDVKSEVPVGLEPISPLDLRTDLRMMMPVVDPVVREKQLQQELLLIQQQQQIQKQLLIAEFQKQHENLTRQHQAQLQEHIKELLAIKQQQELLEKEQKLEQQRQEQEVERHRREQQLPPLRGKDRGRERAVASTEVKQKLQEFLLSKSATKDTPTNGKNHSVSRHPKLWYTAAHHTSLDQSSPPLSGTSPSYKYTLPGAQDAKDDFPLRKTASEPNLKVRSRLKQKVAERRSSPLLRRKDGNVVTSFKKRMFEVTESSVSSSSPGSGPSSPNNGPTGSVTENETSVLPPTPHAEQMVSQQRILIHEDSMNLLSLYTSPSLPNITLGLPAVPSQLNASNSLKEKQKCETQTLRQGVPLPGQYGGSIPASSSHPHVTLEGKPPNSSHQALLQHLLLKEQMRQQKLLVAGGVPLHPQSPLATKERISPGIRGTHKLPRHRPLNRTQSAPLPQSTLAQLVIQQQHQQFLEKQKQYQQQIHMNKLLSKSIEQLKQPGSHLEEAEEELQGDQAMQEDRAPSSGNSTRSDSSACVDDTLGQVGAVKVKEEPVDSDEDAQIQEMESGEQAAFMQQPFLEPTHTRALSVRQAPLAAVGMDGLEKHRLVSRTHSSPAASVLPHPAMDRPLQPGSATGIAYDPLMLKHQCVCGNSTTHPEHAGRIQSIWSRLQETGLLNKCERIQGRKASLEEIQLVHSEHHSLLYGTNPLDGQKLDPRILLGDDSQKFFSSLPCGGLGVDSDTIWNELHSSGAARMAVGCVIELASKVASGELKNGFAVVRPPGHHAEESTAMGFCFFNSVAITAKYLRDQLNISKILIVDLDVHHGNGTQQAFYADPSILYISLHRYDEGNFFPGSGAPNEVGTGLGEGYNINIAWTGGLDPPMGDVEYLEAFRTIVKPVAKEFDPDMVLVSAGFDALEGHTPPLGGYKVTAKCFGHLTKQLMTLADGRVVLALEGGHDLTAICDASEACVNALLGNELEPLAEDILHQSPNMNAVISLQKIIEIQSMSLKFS
# experiment: Inhibition of human recombinant HDAC9 using acetyl-Lys(trifluoroacetyl)-AMC substrate by fluorescence based assay
reportedEndpoint: pIC50
Interpret pIC50 as the negative base-10 log of the concentration measured in mol/L.

[in] Supply recorded pIC50 for O=c1c2ccccc2[se]n1-c1ccccc1 [EBSELEN] here.
[out] 5.43

====

# assayTarget: Histone deacetylase 5 (Homo sapiens)
# Sequence (Q9UQL6 whole entry): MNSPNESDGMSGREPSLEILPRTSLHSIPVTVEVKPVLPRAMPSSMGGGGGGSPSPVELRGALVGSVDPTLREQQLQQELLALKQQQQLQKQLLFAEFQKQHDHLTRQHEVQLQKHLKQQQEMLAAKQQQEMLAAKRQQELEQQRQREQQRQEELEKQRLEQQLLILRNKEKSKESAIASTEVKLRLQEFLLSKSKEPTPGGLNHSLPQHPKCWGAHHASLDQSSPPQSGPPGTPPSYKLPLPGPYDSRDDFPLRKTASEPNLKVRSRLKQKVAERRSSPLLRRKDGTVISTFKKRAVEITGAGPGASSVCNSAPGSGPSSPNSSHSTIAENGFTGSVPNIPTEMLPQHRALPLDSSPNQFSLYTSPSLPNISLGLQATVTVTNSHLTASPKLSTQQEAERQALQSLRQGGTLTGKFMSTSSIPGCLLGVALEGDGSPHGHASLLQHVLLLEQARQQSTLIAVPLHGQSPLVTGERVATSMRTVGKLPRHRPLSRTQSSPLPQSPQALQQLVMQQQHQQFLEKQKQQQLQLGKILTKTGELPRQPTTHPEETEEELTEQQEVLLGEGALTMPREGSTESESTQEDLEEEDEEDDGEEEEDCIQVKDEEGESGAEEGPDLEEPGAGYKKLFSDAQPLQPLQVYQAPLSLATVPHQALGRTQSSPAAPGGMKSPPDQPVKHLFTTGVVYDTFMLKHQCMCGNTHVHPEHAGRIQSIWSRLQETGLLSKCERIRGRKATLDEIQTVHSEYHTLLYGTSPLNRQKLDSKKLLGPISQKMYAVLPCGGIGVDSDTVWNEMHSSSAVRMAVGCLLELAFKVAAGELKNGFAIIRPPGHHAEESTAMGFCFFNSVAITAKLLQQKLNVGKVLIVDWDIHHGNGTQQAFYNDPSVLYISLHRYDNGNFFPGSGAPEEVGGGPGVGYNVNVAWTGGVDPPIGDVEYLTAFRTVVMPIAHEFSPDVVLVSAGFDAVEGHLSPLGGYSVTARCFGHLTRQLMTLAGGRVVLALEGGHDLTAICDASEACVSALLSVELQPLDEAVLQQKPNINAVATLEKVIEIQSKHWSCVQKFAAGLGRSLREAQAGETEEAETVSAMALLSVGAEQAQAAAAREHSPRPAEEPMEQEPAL
# experiment: Inhibition of human recombinant HDAC5 using acetyl-Lys(trifluoroacetyl)-AMC substrate by fluorescence based assay
reportedEndpoint: pIC50
Interpret pIC50 as the negative base-10 log of the concentration measured in mol/L.

[in] Supply recorded pIC50 for O=c1c2ccccc2[se]n1-c1ccccc1 here.
[out] 5.47
